The origin of these recorded values is patent US20100048468A1.

Exercise: for every item that follows, state its recorded pIC50.
# testTarget: T1, human GLP-1 receptor (human, UniProt P43220 24-463)
# T1 construct: whole, on cells
# procedureDetails: 125I-GLP-1 displacement, membranes of CHOK1 cells expressing human GLP-1 receptor
Non-standard residues stand in square brackets, D forms with d. Primed or numbered codes have the meaning given here. No end group written: not given here. mPEG‑maleimide = 30 kD linear mPEG-maleimide attached to the Cys; Aib′ = alpha aminobutyric acid (source's wording)
Answers are plain numbers, as −log10 of the molar value.

binder	measurementType	recordedNumber
HGEGTFTSDVSSYLE[Aib′]QAAKEFIAWLVKGRGC(mPEG‑maleimide)SG-NH2 (also: PEG on Cys32: 30k, but the text says branched 40 kDa) [cgGLP-28 (SEQ ID NO: 22 + 30k PEG)]	pIC50	7.15
HGEGTFTSDVSSYLE[Aib′]QAAKEFIAWLVKGRGC(mPEG‑maleimide 10 kDa)SG-NH2 [cgGLP-26 (SEQ ID NO: 22 + 10k PEG)]	pIC50	7.64
HGEGTFTSDVSSYLE[Aib′]QAAKEFIAWLVKGRG-NH2 [HGEGT FTSDV SSYLE [Aib]QAAK EFIAW LVKGR G-AMIDE (SEQ ID NO: 15)]	pIC50	8.46

Required: pIC50, one value per binder below.
1. HGEGTFTSDVSSYLE[Aib′]QAAKEFIAWLVKGRGC(mPEG‑maleimide 20 kDa)SGG-NH2 [mgGLP-15 (SEQ ID NO: 24 + 20k PEG)]
2. HGEGTFTSDVSSYLE[Aib′]QAAKEFIAWLVKGRGC(mPEG‑maleimide 20 kDa)G-NH2 [mgGLP-16 (SEQ ID NO: 20 + 20k PEG)]

// result
1: 7.00; 2: 7.30
